Source: paper PMC11842988

System: OMP-/TAAp-specific CD8+ T cells in HD PBMCs
Type: cell-based, human
TEST CONTEXT: HLA-A2+ HD PBMCs after IVS with OMPs; average unless stated
ASSAY ENDPOINT: Cross-reactivity OMP/TAAp in healthy donor CD8+ T cells

{"RESIDUE SEQUENCE": "LMDLSTTEV [OMP18]", "TEST VALUE": "below 33%"}
{"RESIDUE SEQUENCE": "FMLGEFLKL [OMP17]", "TEST VALUE": "above 66%"}
{"RESIDUE SEQUENCE": "YIFEHPETA [OMP64]", "TEST VALUE": "below 33%"}
{"RESIDUE SEQUENCE": "FLYDVRTYL [OMP10]", "TEST VALUE": "below 33%"}
{"RESIDUE SEQUENCE": "ALNPELLAL [OMP12]", "TEST VALUE": "above 66%"}

// moving on: another record for Cross-reactivity OMP/TAAp in healthy donor CD8+ T cells
Incoming: Entry under review: SLPDRILTV [OMP11] . Reported Cross-reactivity OMP/TAAp in healthy donor CD8+ T cells?
Outgoing: below 33%
